method_notes: NCI Yeast Anticancer Drug Screen. Data for the sgs1 mgt1 strain (AID 161);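 note: 0% = growth of cultures given vehicle only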
measurement_parameters: S. cerevisiae sgs1 mgt1 strain, at 5.0 µM (retest, dose inferred, filed as 0.5), active compounds read high
About 79,000 compounds went through this panel and 15% of them were active in at least one assay; those are over-represented in the sample as a whole. Where a SMILES comes first, the peptide text is derived from it. The star is where a group is joined. Boc = CC(C)(C)OC(=O)*; OBn = c1ccc(CO*)cc1; Bn = c1ccc(C*)cc1
For each entry below, report its growth inhibition value.
Reply numerically in %, unit not repeated.

Supply growth inhibition value. Item: `O=C(/C=C/c1cccc(Cl)c1)c1ccccc1` 7

Supply growth inhibition value. Item: `O=S(=O)(Nc1ccnn1-c1ccccc1)c1ccc(N=Cc2c3ccccc3nc3cc(Cl)ccc23)cc1` 10

Supply growth inhibition value. Item: `O=C1Nc2ccccc2NC(=O)C(=C(c2ccccc2)c2ccccc2)C1=C(c1ccccc1)c1ccccc1` 96

Supply growth inhibition value. Item: `Clc1cccc(N2CCN(c3c4c(nc5ccccc35)CCCCC4)CC2)c1` 87

Supply growth inhibition value. Item: `O=C(CBr)c1ccc2cc(Br)c3ccccc3c2c1` 98

Supply growth inhibition value. Item: CC(C)CC(NC(=O)C(Cc1ccccc1)NC(=O)C(COCc1ccccc1)NC(=O)OC(C)(C)C)C(=O)OCc1ccccc1 (stereo not drawn) (Boc-Ser(Bn)-Phe-Leu-OBn; configuration not given here) -15

Supply growth inhibition value. Item: `COC(=O)c1nc2ccc([N+](=O)[O-])cc2n1O` -60

Supply growth inhibition value. Item: `c1ccc2c(c1)Nc1ccccc1[P+]21c2ccccc2Nc2ccccc21` 99

Supply growth inhibition value. Item: `C[n+]1c(-c2ccc(/C=C/C=N\NC(=O)c3ccc(C(=O)N/N=C\C=C\c4ccc(-c5cn6ccccc6[n+]5C)cc4)cc3)cc2)cn2ccccc21` 16

Supply growth inhibition value. Item: `Oc1ccc2ccc3ccccc3c2c1` 5

Supply growth inhibition value. Item: `CC1=C(C(=O)Nc2ccccc2)C(c2ccccc2F)C(C(=O)Nc2ccccc2)=C(C)N1` -4

Supply growth inhibition value. Item: `COC(=O)c1[nH]cnc1/N=N/N(C)C` 99

Supply growth inhibition value. Item: `O=Nc1c(-c2cccc([N+](=O)[O-])c2)nc2cnccn12` 54

Supply growth inhibition value. Item: `Nc1nc(N)c2c(ccc3c2ccn3Cc2cccc([N+](=O)[O-])c2)n1` 56

Supply growth inhibition value. Item: C1CCC(OC2CCCCO2)OC1 (stereo unspecified) -11

Supply growth inhibition value. Item: `CC(C)C(=O)NNc1ccccc1` 18

Supply growth inhibition value. Item: `C[CH2][Sn]([CH2]C)([O]C(=O)c1cccc(OC)c1)[O][Sn]([CH2]C)([CH2]C)[O]C(=O)c1cccc(OC)c1` 36

Supply growth inhibition value. Item: `O=C1C=CC(=O)c2c(O)c(N3CCC[C@H]3CO)c(Cl)c(O)c21` 19

Supply growth inhibition value. Item: `CCc1cc2c([nH]c3ccccc32)c(C)c1CCN(C)C` 3

Supply growth inhibition value. Item: `Cc1ccc(S(=O)(=O)Nc2ccc3c(c2)Cc2cc([N+](=O)[O-])ccc2-3)cc1` 42

Supply growth inhibition value. Item: `CC(/C=C/c1cccs1)=N\C(=S)NC(N)=S` 1
